I'd be grateful if you could share measured kon for these entries.
# TARGET_UNDER_TEST: cynomolgus monkey MuSK (cynomolgus monkey, UniProt A0A2K5USF6 24-487)
# Sequence (A0A2K5USF6 entry or part of it): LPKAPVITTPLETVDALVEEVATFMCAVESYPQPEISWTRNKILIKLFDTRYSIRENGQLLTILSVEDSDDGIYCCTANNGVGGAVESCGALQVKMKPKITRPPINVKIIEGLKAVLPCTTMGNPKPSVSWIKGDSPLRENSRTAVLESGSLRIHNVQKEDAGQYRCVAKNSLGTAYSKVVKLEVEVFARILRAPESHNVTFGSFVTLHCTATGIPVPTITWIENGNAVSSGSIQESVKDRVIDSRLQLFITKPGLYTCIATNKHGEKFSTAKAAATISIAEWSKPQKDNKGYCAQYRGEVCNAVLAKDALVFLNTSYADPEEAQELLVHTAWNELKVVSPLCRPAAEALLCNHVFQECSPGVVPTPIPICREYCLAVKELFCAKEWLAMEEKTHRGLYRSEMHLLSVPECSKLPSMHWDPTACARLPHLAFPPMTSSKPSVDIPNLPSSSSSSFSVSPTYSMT
# METHOD_NOTES: Biacore, MuSK on chip, association pH 7.4, dissociation pH 5.5
Field: numeric (M⁻¹ s⁻¹). Do not append units.

GET /value?item= 3B2g2m4 (antibody, human IgG1, V domains shown, human IgG1-LALA backbone; produced in HEK293 cells) VH: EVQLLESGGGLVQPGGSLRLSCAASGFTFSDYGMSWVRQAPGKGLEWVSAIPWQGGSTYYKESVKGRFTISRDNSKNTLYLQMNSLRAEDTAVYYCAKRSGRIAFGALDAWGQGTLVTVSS VL: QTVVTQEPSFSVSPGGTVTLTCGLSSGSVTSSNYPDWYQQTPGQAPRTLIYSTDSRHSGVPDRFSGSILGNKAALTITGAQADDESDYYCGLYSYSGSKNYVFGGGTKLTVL &field=kon returns 750000

GET /value?item= 3B2 (antibody, V domains shown, human IgG1 with the LALA mutations (L234A, L235A); produced in HEK293 cells; also called 3B2 mAb; parental 3B2 Ab) VH: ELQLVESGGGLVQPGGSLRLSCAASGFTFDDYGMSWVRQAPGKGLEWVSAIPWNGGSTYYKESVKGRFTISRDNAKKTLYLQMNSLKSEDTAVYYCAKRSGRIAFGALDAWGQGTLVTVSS VL: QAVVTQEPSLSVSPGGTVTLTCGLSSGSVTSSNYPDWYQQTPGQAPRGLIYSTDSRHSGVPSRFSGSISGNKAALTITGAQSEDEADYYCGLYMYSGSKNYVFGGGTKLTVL &field=kon returns 740000

GET /value?item= 3B2g1m1 (antibody, human IgG1, V domains shown, human IgG1-LALA backbone; produced in HEK293 cells) VH: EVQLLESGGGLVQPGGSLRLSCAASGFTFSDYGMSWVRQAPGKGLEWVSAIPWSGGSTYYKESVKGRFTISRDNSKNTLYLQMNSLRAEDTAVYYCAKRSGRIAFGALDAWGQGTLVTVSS VL: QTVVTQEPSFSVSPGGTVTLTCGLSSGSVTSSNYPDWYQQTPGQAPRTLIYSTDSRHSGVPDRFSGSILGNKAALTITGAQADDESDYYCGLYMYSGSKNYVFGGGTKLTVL &field=kon returns 810000

GET /value?item= 3B2g2m1 (antibody, human IgG1, V domains shown, human IgG1-LALA backbone; produced in HEK293 cells; also called MuSK agonist antibody 3B2g2m1; MuSK-mAb 3B2g2m1) VH: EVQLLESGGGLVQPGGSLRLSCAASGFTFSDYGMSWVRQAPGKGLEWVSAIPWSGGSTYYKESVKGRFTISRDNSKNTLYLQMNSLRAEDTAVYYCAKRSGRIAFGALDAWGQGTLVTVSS VL: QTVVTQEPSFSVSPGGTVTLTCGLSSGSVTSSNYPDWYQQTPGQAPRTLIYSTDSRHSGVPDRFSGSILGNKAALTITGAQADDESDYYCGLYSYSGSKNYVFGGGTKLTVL &field=kon returns 850000

The reported measurements were obtained from patent US20230151091A1.
